# target: CRF-binding protein / CRF-R2 receptor complex (human)
# assay-info: activators of CRF-R2 paired with CRF-BP – cell-based, 384-well, SAR follow-up (AID 651648)
# run-conditions: cells expressing CRF-BP/CRF-R2 complex, agonist read-out
Activity calls are given as the source filed them. The rule behind the calls is not given here.
Outcome codes: 1 for active, -1 for inactive

{"compound": "CCNC(=S)NNC(=O)c1cccn(Cc2ccc(Cl)cc2Cl)c1=O", "label": -1}
{"compound": "O=C(Nc1ccc(SC(F)F)cc1)c1ccc2c(=O)n3c(nc2c1)CCC3", "label": -1}
{"compound": "CCOc1ccccc1N(CC(=O)N1CCOCC1)S(=O)(=O)c1ccc(C)cc1", "label": 1}
{"compound": "CSCCC(NC(=O)c1ccco1)C(=O)OC(C)C(=O)NC(=O)NC1CCCCC1 (stereo not given)", "label": 1}
{"compound": "CCOc1ccccc1N(CC(=O)N1CCOCC1)S(=O)(=O)c1ccc(Br)cc1", "label": 1}
{"compound": "O=C(Nc1cc(S(=O)(=O)N2CCCCC2)ccc1O)c1ccccc1NS(=O)(=O)c1ccc(F)c(F)c1", "label": -1}
{"compound": "CCCCCn1nc(-c2ccccc2)c2nc3ccccc3nc21", "label": 1}
{"compound": "CC1(C)CSC(=NCc2ccccc2)N1", "label": 1}
{"compound": "CCc1ccccc1N(CC(=O)N1CCOCC1)S(=O)(=O)c1ccc(C)cc1", "label": -1}
{"compound": "Cc1nc2c(c(=O)c3ccccc3n2C)c(=O)n1C1CCCCCC1", "label": -1}
{"compound": "COc1ccc(CN2CCCCC2C)cc1C (stereo not given)", "label": -1}
{"compound": "CCOc1ccccc1N(CC(=O)N1CCOCC1)S(=O)(=O)c1cc(C(=O)OC)ccc1OC", "label": -1}
{"compound": "COc1ccc(NC(=O)c2cccnc2Sc2ccc(NC(C)=O)nc2)cc1", "label": -1}
{"compound": "O=C(O)c1cc(Cl)ccc1-c1ccc(/C=C/c2cc(C(F)(F)F)[nH]c(=O)n2)o1", "label": 1}
{"compound": "N#Cc1c(-c2ccccc2)cc(-c2ccccc2)nc1SCC(=O)NCC(=O)O", "label": -1}
{"compound": "CSCCC(NC(=O)c1ccco1)C(=O)N1CC=C(c2ccccc2)CC1 (stereo not given)", "label": 1}
{"compound": "O=[N+]([O-])c1ccc(O)c(Nc2ncnc3ccc(Br)cc23)c1", "label": -1}
{"compound": "O=C(CCn1c2c(c3ccccc31)CCCC2)NNC(=O)c1ccccc1C(=O)O", "label": -1}
{"compound": "CC(C)c1nc2c(c(=O)c3ccccc3n2C)c(=O)n1CCc1ccccc1", "label": 1}
{"compound": "CCOc1ccccc1N(CC(=O)N1CCOCC1)S(=O)(=O)c1cccc(OC)c1", "label": 1}
{"compound": "COc1ccccc1N(CC(=O)N1CCOCC1)S(=O)(=O)c1ccccc1", "label": -1}
{"compound": "Oc1ccc2ccccc2c1CN1CCCCC1", "label": -1}
{"compound": "CCOc1ccccc1N(CC(=O)N1CCOCC1)S(=O)(=O)c1cccc(Br)c1", "label": 1}
{"compound": "O=C(O)CCNc1nc(-c2ccccc2)c2cc(Br)ccc2n1", "label": -1}
{"compound": "Cc1cccc(Oc2ccc(NC(=O)c3ccccc3C(=O)O)cc2)c1C", "label": -1}
{"compound": "CC(=O)Nc1ccc(Sc2ncccc2C(=O)Nc2ccc(F)cc2)cn1", "label": 1}
{"compound": "CC(=O)Nc1ccc(Sc2ncccc2C(=O)Nc2ccc(F)cc2)cc1", "label": -1}
{"compound": "O=C(Nc1cc(Cl)cc(Cl)c1)c1coc(=O)c(Br)c1", "label": -1}
{"compound": "O=C(Nc1ccc(Br)cc1Cl)c1ccc2c(=O)n3c(nc2c1)CCC3", "label": -1}
{"compound": "CCOc1ccccc1N(CC(=O)N1CCOCC1)S(=O)(=O)c1ccc(C#N)cc1", "label": -1}

Cited source: PubChem BioAssay AID651648
